study_system: full length hCDK2/E (Homo sapiens)
test_protocol: γ-33P ATP filter binding assay, hCDK2/E
condition_label: read-out: CDK2/E % inhibition @ 50 μM, 50 μM compound, 10 μM ATP
measured_endpoint: inhibition at 50 µM (%)

[1] Cc1ccc(Nc2nc(NCCO)nc3c2cnn3-c2ccccc2)cc1C [Compound 13]
[2] COc1nc(NCCO)nc(Nc2ccc(Cl)cc2)n1 [Compound 5]
[3] O=C1CCc2cc(S(=O)(=O)NCCCn3cccn3)ccc2N1 [Compound 8]
[4] Cc1cc(C)c2c(CCCC(=O)O)c(-c3ccccn3)[nH]c2c1 [Compound 11]
Enquiry: Sort key = inhibition at 50 µM. Sort direction = ascending. Apply to the list above. # the answer lists labels in the order requested
Return: 1, 4, 3, 2
(1: 5.3%, 4: 8%, 3: 14.8%, 2: 24.2%)
